# SYSTEM_NAME: human α1G T-type channels (Homo sapiens)
# Construct: expressed in transfected cells; host or cells: HEK 293
# Sequence (O43497 whole entry): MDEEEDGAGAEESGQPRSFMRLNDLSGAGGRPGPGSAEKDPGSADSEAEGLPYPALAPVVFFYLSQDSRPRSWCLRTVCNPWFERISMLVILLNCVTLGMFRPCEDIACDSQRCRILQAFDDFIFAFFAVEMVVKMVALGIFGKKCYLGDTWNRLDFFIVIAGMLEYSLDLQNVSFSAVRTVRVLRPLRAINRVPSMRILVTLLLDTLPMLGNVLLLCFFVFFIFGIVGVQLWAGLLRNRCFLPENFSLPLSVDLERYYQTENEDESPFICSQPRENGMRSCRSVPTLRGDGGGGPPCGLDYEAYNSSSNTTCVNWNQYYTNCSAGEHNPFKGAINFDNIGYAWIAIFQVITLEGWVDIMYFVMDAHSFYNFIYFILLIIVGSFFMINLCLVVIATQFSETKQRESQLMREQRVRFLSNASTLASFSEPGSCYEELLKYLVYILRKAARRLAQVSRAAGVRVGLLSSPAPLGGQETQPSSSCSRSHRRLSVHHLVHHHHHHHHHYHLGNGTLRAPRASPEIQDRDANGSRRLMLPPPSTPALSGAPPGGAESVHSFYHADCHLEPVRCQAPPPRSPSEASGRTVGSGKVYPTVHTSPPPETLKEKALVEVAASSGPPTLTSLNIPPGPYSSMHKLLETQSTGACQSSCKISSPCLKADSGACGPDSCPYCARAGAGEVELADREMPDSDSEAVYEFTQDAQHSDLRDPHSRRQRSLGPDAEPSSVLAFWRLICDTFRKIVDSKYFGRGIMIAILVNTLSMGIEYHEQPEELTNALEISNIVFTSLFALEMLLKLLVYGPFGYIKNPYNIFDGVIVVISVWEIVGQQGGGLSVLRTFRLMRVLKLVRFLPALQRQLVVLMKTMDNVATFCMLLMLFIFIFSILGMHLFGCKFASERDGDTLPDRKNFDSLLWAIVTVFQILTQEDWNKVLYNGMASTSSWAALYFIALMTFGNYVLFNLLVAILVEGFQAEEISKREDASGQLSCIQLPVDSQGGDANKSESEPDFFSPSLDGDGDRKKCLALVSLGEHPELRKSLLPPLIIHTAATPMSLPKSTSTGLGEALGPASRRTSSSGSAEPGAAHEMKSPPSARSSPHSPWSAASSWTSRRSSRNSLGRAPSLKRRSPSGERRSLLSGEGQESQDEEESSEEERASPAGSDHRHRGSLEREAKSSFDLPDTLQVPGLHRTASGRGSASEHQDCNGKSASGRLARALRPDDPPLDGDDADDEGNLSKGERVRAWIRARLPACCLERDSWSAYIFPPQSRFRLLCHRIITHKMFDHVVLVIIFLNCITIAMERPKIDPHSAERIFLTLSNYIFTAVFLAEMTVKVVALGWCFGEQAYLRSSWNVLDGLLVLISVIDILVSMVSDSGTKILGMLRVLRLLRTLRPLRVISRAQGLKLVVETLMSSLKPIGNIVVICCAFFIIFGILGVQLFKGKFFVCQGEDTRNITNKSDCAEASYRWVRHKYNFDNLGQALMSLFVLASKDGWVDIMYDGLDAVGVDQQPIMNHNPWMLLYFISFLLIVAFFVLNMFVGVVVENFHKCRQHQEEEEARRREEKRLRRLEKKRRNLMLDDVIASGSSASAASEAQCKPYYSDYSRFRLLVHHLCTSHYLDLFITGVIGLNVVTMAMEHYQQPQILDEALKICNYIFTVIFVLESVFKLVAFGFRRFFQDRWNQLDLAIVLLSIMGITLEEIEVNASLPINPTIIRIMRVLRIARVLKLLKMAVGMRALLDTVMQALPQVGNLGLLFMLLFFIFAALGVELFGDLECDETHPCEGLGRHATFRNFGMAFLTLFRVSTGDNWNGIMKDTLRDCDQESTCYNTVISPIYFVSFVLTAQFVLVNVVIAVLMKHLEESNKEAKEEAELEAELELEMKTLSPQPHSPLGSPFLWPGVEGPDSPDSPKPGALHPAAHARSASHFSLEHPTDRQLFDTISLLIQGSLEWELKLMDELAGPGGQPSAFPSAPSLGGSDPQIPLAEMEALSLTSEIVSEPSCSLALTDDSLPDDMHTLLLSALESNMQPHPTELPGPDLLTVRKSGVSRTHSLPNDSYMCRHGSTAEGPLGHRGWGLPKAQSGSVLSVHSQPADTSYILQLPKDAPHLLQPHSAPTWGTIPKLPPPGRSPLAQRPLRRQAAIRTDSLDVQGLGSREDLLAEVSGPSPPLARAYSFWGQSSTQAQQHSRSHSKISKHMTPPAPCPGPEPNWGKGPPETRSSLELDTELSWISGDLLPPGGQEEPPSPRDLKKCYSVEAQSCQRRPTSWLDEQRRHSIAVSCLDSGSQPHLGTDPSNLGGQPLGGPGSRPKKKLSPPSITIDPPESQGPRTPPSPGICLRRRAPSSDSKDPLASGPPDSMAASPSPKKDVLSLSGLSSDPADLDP
# ASSAY_PROCEDURE: T-type calcium channel block, whole cell patch clamp in HEK cells
# Type: cell-based
# DETAILS: HEK cells stably expressing human α1G; measured at 1 μM drug; mainly non-inactivated protocol
Please note: Kd exactly at 500 nM is no. Only values below 500 nM get yes.

>>> print(df.to_string())
                                    molecule  assigned_class
 0  Cc1c(C(=O)N2CCN(c3ccccc3F)CC2)sc2ncn(CC(=O)N3CCC(C(F)(F)F)CC3)c(=O)c12              no
 1  Cc1c(C(=O)N2CCN(c3cccc(Cl)c3)CC2)sc2ncn(CC(=O)N3CCCC3)c(=O)c12 [Compound 73]              no
 2  CCN(CC)C(=O)Cn1cnc2sc(C(=O)N3CCN(c4ccc(C(F)(F)F)cc4)CC3)c(C)c2c1=O              no
 3  CCN(CC)C(=O)Cn1cnc2sc(C(=O)N3CCN(c4ccccc4C(F)(F)F)CC3)c(C)c2c1=O              no
 4  Cc1c(C(=O)N2CCN(c3cccc(Cl)c3)CC2)sc2ncn(CC(=O)N3CCC(F)(F)C3)c(=O)c12              no
 5  Cc1c(C(=O)N2CCN(c3ccc(F)c(Cl)c3)CC2)sc2ncn(CC(=O)N3CC[C@H](F)C3)c(=O)c12              no
 6  Cc1c(C(=O)N2CCN(c3cccc(Cl)c3)CC2)sc2ncn(CC(=O)NC(C)(C)C)c(=O)c12              no
 7  Cc1c(C(=O)N2CCN(c3ccccc3F)CC2)sc2ncn(CC(=O)Nc3cccc(C(F)(F)F)c3)c(=O)c12             yes
 8  Cc1c(C(=O)N2CCN(c3ccc(Cl)cc3)CC2)sc2ncn(CC(=O)NC(C)(C)C)c(=O)c12              no
 9  Cc1c(C(=O)N2CCN(c3ccc(Cl)cc3)CC2)sc2ncn(CC(=O)NC3CCCCC3)c(=O)c12             yes
10  Cc1c(C(=O)N2CCCCC2)sc2ncn(CC(=O)Nc3cc(C(F)(F)F)cc(C(F)(F)F)c3)c(=O)c12             yes
11  CCN(CC)C(=O)Cn1cnc2sc(C(=O)N3CCN(c4ccc(Cl)c(C(F)(F)F)c4)CC3)c(C)c2c1=O             yes
12  Cc1c(C(=O)N2CCN(c3ccc(Cl)c(C(F)(F)F)c3)CC2)sc2ncn(CC(=O)NC3CCCC3)c(=O)c12             yes
13  CCN(CC)C(=O)Cn1cnc2sc(C(=O)N3CCN(c4cccc(Cl)c4)CC3)c(C)c2c1=O              no
